# Assay explanation: Single ascending dose study, plasma pharmacokinetics of Compound (1) and GHB
# Type: in vivo, human
# Particulars: human, plasma, po, 4.5 g, Cohort 5 (4.50 g) single oral dose, fasted; read-out: Compound (1) plasma AUC0-tlast, Mean
Reported metric: AUC(0-t) (ng·h/mL)
Enter your answer as a number in ng·h/mL; do not include the unit.

Task: Look at this molecule and give its reported AUC(0-t). CC(C)[C@H](N)C(=O)OCCCC(=O)O [Compound (1), 4-((L-valyl)oxy)butanoic acid]
Output: 11100

###

# Assay explanation: Multiple ascending dose study, plasma pharmacokinetics of Compound (1) and GHB
# Type: in vivo, human
# Particulars: human, plasma, oral, 6 g/day, Cohort 10 (6.0 g/day in a single dose), Dosing Day 4; read-out: Compound (1) plasma T1/2, Mean (converted)
# Description: The plasma concentrations of Compound (1) and GHB in plasma in healthy human subjects were measured using liquid chromatography tandem mass-spectroscopy and evaluated using PHOENIX™ WINNONLIN® version 8.1 (Pharsight Corporation, USA) and MICROSOFT® EXCEL® (Microsoft Corporation, USA). All randomized subjects who received Compound (1), with available pharmacokinetic (PK) data and without relevant deviations interfering with the PK evaluations, were included. […]
Reported metric: half-life (min)
Enter your answer as a number in min; do not include the unit.

Task: Look at this compound and give its reported half-life. CC(C)[C@H](N)C(=O)OCCCC(=O)O
Output: 24.6

###

# Assay explanation: Multiple ascending dose study, plasma pharmacokinetics of Compound (1) and GHB
# Assay type: in vivo, human
# Particulars: human, plasma, oral, 6 g/day, Cohort 8 (6.0 g/day divided into equal 2 doses), Dosing Day 4; read-out: Compound (1) plasma Cmax, Mean
Reported metric: Cmax (ng/mL)
Enter your answer as a number in ng/mL; do not include the unit.

Task: Look at this molecule and give its reported Cmax. CC(C)[C@H](N)C(=O)OCCCC(=O)O [Compound (1), 4-((L-valyl)oxy)butanoic acid]
Output: 12100

###

# Assay explanation: Single ascending dose study, plasma pharmacokinetics of Compound (1) and GHB
# Type: in vivo, human
# Particulars: human, plasma, po, 7.25 g, Cohort 7 (7.25 g) single oral dose, fasted; read-out: Compound (1) plasma t1/2, Median (converted)
Reported metric: half-life (h)
Enter your answer as a number in h; do not include the unit.

Task: Look at this molecule and give its reported half-life. CC(C)[C@H](N)C(=O)OCCCC(=O)O
Output: 1.12

###

# Assay explanation: Multiple ascending dose study, plasma pharmacokinetics of Compound (1) and GHB
# Format: in vivo, human
# Particulars: human, plasma, oral, 6 g/day, Cohort 8 (6.0 g/day divided into equal 2 doses), Dosing Day 4; read-out: Compound (1) plasma AUC0-inf, Mean
Reported metric: AUC(0-inf) (ng·h/mL)
Enter your answer as a number in ng·h/mL; do not include the unit.

Task: Look at this molecule and give its reported AUC(0-inf). CC(C)[C@H](N)C(=O)OCCCC(=O)O
Output: 14500

###

# Assay explanation: Food effect and relative bioavailability crossover study, Compound (1) vs sodium oxybate
# Particulars: human, plasma, po, 7.25 g, plasma Compound (1) Cmax, Adjusted Geometric Mean, 7.25 g Compound (1) oral, Fed
Reported metric: Cmax (ng/mL)
Enter your answer as a number in ng/mL; do not include the unit.

Task: Look at this compound and give its reported Cmax. CC(C)[C@H](N)C(=O)OCCCC(=O)O
Output: 16500
